Molecular target: T1, P-0689 (IL-2 Fc fusion) (Homo sapiens (Human), UniProt P0DOX5 223-448 = IgG part)
T1 construct: Monovalent IL-2 S125I Fc fusion; also called IL-2 S125I monovalent Fc fusion protein; monovalent wild-type IL-2 Fc fusion protein
Experiment: ELISA, IL-2RαSushi Fc fusion coated, P-0689 titrated, biotin anti-IL2 antibody and Avidin-HRP
Excerpt: IL-2Rα variants were designed to reduce binding to IL-2 by incorporating mutations at residues interacting IL-2 so that the D3 moiety would readily diffuse away upon in vivo proteolysis. Three exemplary IL-2RαSushi variants (SEQ ID NOS: 267-269) were expressed as monovalent Fc fusion proteins corresponding to P-0751 (Y43A), P-0752 (L42G), and P-0753 (R36A), respectively. […]
Property Measured: EC50 Fold change vs w/t IL-2Rα (fold)
Use fold as the unit, but write only the number.

Guide cases for EC50 Fold change vs w/t IL-2Rα, answers given:
Binder | Property Measured | Test Result
P-0751 (IL-2RαSushi Y43A monovalent Fc fusion) (Fc fusion, also called IL-2Rα Y43A; not shown: Fc chain fused to the Sushi variant, its linker and orientation, and the partner Fc chain of the monovalent heterodimer) ELCDDDPPEIPHATFKAMAYKEGTMLNCECKRGFRRIKSGSLAMLCTGNSSHSSWDNQCQCTSSATRNTTKQVTPQPEEQKERKTTEMQSPMQPVDQASLPGHCREPPPWENEATERIYHFVVGQMVYYQCVQGYRALHRGPAESVCKMTHGKTRWTQPQLICTG | EC50 Fold change vs w/t IL-2Rα | 8.1
P-0753 (IL-2RαSushi R36A monovalent Fc fusion) (Fc fusion, also called IL-2Rα R36A; not shown: Fc chain fused to the Sushi variant, its linker and orientation, and the partner Fc chain of the monovalent heterodimer) ELCDDDPPEIPHATFKAMAYKEGTMLNCECKRGFRAIKSGSLYMLCTGNSSHSSWDNQCQCTSSATRNTTKQVTPQPEEQKERKTTEMQSPMQPVDQASLPGHCREPPPWENEATERIYHFVVGQMVYYQCVQGYRALHRGPAESVCKMTHGKTRWTQPQLICTG | EC50 Fold change vs w/t IL-2Rα | 346
P-0752 (IL-2RαSushi L42G monovalent Fc fusion) (Fc fusion, also called IL-2Rα L42G; not shown: Fc chain fused to the Sushi variant, its linker and orientation, and the partner Fc chain of the monovalent heterodimer) ELCDDDPPEIPHATFKAMAYKEGTMLNCECKRGFRRIKSGSGYMLCTGNSSHSSWDNQCQCTSSATRNTTKQVTPQPEEQKERKTTEMQSPMQPVDQASLPGHCREPPPWENEATERIYHFVVGQMVYYQCVQGYRALHRGPAESVCKMTHGKTRWTQPQLICTG | EC50 Fold change vs w/t IL-2Rα | 35

**Q:** State its EC50 Fold change vs w/t IL-2Rα for this binder: P-0757 (wild-type IL-2RαSushi monovalent Fc fusion) (Fc fusion, also called w/t IL-2Rα; not shown: Fc chain fused to the Sushi domain, its linker and orientation, and the partner Fc chain of the monovalent heterodimer) ELCDDDPPEIPHATFKAMAYKEGTMLNCECKRGFRRIKSGSLYMLCTGNSSHSSWDNQCQCTSSATRNTTKQVTPQPEEQKERKTTEMQSPMQPVDQASLPGHCREPPPWENEATERIYHFVVGQMVYYQCVQGYRALHRGPAESVCKMTHGKTRWTQPQLICTG
**A:** 1

Where do the numbers come from? From patent US20230093155A1.
